experiment: recombinant barcode read abundance after kanamycin selection (control-corrected) (log10(CPM+1)); higher = more efficient recombination; sequences stand for … in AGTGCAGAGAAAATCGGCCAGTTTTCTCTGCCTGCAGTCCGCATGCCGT…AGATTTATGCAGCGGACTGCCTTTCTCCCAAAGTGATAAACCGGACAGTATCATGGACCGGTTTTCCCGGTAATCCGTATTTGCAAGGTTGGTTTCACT; site = the 11-nt target;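 also: IS621 recombinase and bridge RNA in Escherichia coli cells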
Threshold check on recombinant barcode read abundance (log10): at or above 0.2 gives satisfied, strictly below gives not satisfied.

Use the examples below as a reference point.
1) TTCAGACCTTGGGTTCTAACCTGTTGCCT (site AGGTACACTGT)
not satisfied
2) TAGGTGCCTTGGGTTCTAACCTGTTGCGG (site TAGGTGACTCC)
not satisfied
3) TTCAGACCTTGGGTTCTAACCTGTTGCCT (site TTCAGACCTAG)
satisfied
4) AAGGACGCTTGGGTTCTAACCTGTTGCCT (site AAGGCCGCTAG)
satisfied

Query sequence follows.
Task: Hi, just wondering whether GTGTCTCCTTGGGTTCTAACCTGTTGCCG (site GTGTCTCCTCG) shows recombinant barcode read abundance (log10) of 0.2 or higher.
Output: not satisfied
